Target: Muscle, skeletal receptor tyrosine-protein kinase (Homo sapiens) (UniProt O15146);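 further: reported value is the mean percent inhibition of MuSK kinase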
Sequence (O15146 whole entry): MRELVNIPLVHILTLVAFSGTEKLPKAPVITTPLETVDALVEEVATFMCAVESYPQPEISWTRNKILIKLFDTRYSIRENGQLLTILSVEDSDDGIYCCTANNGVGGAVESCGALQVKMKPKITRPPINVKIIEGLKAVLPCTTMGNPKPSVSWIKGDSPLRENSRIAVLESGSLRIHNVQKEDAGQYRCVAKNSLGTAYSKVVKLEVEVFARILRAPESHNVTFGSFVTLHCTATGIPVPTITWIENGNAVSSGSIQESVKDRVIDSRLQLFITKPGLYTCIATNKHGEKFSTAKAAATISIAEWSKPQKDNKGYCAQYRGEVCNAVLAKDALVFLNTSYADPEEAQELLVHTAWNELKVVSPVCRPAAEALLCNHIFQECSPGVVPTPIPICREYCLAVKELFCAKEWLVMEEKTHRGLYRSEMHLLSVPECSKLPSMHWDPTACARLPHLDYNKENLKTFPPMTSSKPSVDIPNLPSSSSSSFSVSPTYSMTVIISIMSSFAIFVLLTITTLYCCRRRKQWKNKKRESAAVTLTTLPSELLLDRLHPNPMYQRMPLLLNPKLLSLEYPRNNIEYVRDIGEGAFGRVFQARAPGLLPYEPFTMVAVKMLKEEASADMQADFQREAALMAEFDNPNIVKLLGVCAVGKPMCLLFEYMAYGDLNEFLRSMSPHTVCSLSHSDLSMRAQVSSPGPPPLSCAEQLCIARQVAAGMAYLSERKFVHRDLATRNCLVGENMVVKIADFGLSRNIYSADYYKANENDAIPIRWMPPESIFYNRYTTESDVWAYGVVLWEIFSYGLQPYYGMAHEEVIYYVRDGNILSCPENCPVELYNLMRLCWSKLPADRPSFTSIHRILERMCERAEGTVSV
Conditions: at 1 µM
Entries and their inhibition
Give the quantity in %, number only.

- COC(=O)Nc1nc2ccc(Oc3ccc(NC(=O)Nc4cccc(Cl)c4)cc3)cc2[nH]1: 33.2
- Cc1ccc(O)cc1Nc1ccnc2cc(-c3ccccn3)ccc12: 5.77
- COC(=O)c1sc(-n2cnc3cc(OC)c(OC)cc32)cc1OCc1ccccc1C(F)(F)F: 48.1

Look up inhibition: CNC(=O)c1cccc(C#Cc2cncnc2Nc2ccc(OCc3cccc(F)c3)c(Cl)c2)c1 -1.15

Do the same for CCn1c(-c2nonc2N)nc2c(C#CC(C)(C)O)nc(OC[C@H](N)c3ccccc3)cc21 please 5.52

Do the same for CCNC(=O)O[C@H]1CN[C@H](C#Cc2cc3ncnc(Nc4ccc(OCc5cccc(F)c5)c(Cl)c4)c3s2)C1 please 3.77

Do the same for Fc1cccc(COc2ccc(Nc3ncnc4sc(-c5ccco5)cc34)cc2Cl)c1 please 3.44

Do the same for CCc1nn2ncccc2c1-c1ccnc(NC2CC2)n1 please 3.55

Do the same for COC(=O)Nc1nc2ccc(S(=O)(=O)c3ccc(NC(=O)Nc4cc(C(F)(F)F)ccc4F)cc3)cc2[nH]1 please 4.85

Do the same for CCCN1CCC(c2ccc(Nc3nc(Nc4cc(F)ccc4C(N)=O)c4cc[nH]c4n3)c(OC)c2)CC1 please 15

Do the same for Fc1ccc(-c2nn3ncccc3c2-c2ccnc(Nc3ccc4c(c3)OCCO4)n2)cc1 please 3.55

Do the same for COc1ccc2c(-c3ccnc(Nc4cccc(OC(F)(F)F)c4)n3)cnn2n1 please 11.5

Do the same for Cc1cccc(Nc2ncc(-c3ccccc3)o2)c1 please 5.58

Do the same for CCn1c(-c2nonc2N)nc2cnc(Oc3cccc(NC(=O)c4ccc(N(C)C)cc4)c3)cc21 please 2.13

Do the same for COc1ccc(CNC(=O)c2ccc(-c3cc(-c4nnc(C)o4)ccc3C)cc2)cc1 please -7.05

Do the same for COc1ccc(-c2nn3ncccc3c2-c2ccnc(Nc3ccc4c(c3)OCCO4)n2)cc1 please -1.95

Do the same for [O-][S+]1CCN(Cc2ccc(-c3ccc4ncnc(Nc5ccc(OCc6cccc(F)c6)c(Cl)c5)c4c3)o2)CC1 please 2.81

Do the same for CN(C)CCOc1ccc(-c2nc(-c3ccncc3)c(-c3ccc4c(c3)CC/C4=N\O)[nH]2)cc1 please 3.72

Do the same for COc1ccc(-c2cc(-c3c[nH]nc3-c3ccccn3)ccn2)cc1 please 4.1

Do the same for c1ccc(-c2nc3n(c2-c2ccc4c(c2)OCO4)CCC3)nc1 please 2.2

====

Molecular target: 3-phosphoinositide-dependent protein kinase 1 (Homo sapiens);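 further: values are mean inhibition of PDK1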
Settings: at 0.1 µM
Entries and their inhibition
Give the quantity in %, number only.

* CNC(=O)c1cncc(/C=C/c2ccccc2Cl)c1 | -0.25

Next compound, inhibition to be filled in.
Look up inhibition: CCn1c(-c2nonc2N)nc2ccccc21 2.81

====

Biological target: Serine/threonine-protein kinase Sgk1 (Homo sapiens) (UniProt O00141)
Sequence (whole entry): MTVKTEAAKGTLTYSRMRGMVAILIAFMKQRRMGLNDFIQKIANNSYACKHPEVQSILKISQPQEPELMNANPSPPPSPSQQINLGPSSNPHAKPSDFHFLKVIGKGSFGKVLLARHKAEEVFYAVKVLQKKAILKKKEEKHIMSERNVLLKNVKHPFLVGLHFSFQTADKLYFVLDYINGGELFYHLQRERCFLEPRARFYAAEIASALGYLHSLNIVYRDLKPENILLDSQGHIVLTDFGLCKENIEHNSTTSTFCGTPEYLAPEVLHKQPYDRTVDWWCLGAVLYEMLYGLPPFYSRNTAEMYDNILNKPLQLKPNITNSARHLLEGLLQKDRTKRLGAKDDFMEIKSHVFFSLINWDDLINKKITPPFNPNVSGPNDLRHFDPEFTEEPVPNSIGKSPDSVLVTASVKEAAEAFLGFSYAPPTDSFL
Settings: at 0.1 µM
Description: GSK_PKIS: SGK1 mean inhibition at 0.1 uM [Nanosyn]
# binarize inhibition: threshold 3% inclusive, high side yes, low side no

Solved entries:
- CNC(=O)c1cc(-c2ccc(F)cc2)cc(-c2ccc(S(=O)(=O)N3CCCC3)cc2)c1N: no
- CCn1c(-c2nonc2N)nc2c(C#CC(C)(C)O)nc(OC[C@H](N)c3ccccc3)cc21: no
- COc1ccc2c(-c3ccnc(Nc4cccc(OC(F)(F)F)c4)n3)cnn2n1: yes

Now for a further molecule.
Does the molecule O=C(Nc1n[nH]c2cc(-c3ccc(F)cc3)ccc12)C1CC1 have recorded inhibition that is 3% or more? no
